- System: NSCLC strain A-549
- ASSAY_PROCEDURE: MTT assay for cell survival, NSCLC A-549 in vitro
- Type: cell-based, human
- TEST_SETTINGS: ED50 for killing of NSCLC strain A-549 in vitro, 4 days
RECORDED_METRIC: IC50 (µM)
Lab book: enter the figure in µM, no units written.

COMPOUND: O=C(C=Cc1c(F)c(F)c(F)c(F)c1F)NC(Cc1ccc(I)cc1)C(=O)N1CCN(CCc2ccccc2)CC1 (centres unmarked)
IC50 / µM: 17
--
COMPOUND: O=C(NC(Cc1ccc(-c2ccccc2)cc1)C(=O)N1CC2CC1CN2Cc1ccccc1)C(c1ccc(Cl)cc1)c1ccc(Cl)cc1 (centres unmarked)
IC50 / µM: 20
--
COMPOUND: O=C(C=Cc1c(F)c(F)c(F)c(F)c1F)NC(Cc1ccc(I)cc1)C(=O)NC1CCN(Cc2ccccc2)C1 (centres unmarked) [Analog M-1312, F5c-PIF-BapS]
IC50 / µM: 13
--
COMPOUND: CC1(C)CC(NC(=O)C(Cc2ccc(OCc3c(Cl)cccc3Cl)cc2)NC(=O)c2ccc(NC(=N)N)cc2)CC(C)(C)N1 (centres unmarked)
IC50 / µM: 4.3
--
COMPOUND: CCCCCCCCN1CCN(C(=O)C(Cc2ccc(I)cc2)NC(=O)C=Cc2c(F)c(F)c(F)c(F)c2F)CC1 (centres unmarked)
IC50 / µM: 17

Recorded result, O=C(C=Cc1c(F)c(F)c(F)c(F)c1F)NC(Cc1ccc(I)cc1)C(=O)N1CCN(Cc2ccc(Cl)cc2)CC1 (centres unmarked) , IC50: 12

Recorded result, O=C(C=Cc1c(F)c(F)c(F)c(F)c1F)NC(Cc1ccc(I)cc1)C(=O)N1CCCN(Cc2ccccc2)CC1 (centres unmarked) , IC50: 22

Recorded result, O=C(C=Cc1c(F)c(F)c(F)c(F)c1F)NC(Cc1ccc(I)cc1)C(=O)NC1CN2CCC1CC2 [Analog M-1290, F5c-PIF-(S)-(−)-Aqu] , IC50: 14

Recorded result, O=C(C=Cc1c(F)c(F)c(F)c(F)c1F)NC(Cc1ccc(I)cc1)C(=O)N1CCN(Cc2ccc(F)cc2)CC1 (centres unmarked) , IC50: 13

Recorded result, CC1(C)CC(NC(=O)C(Cc2ccc(OCc3c(Cl)cccc3Cl)cc2)NC(=O)CCCc2ccc(N(CCCl)CCCl)cc2)CC(C)(C)N1 (centres unmarked) , IC50: 1.9

====

- Test system: NSCLC strain A-549
- ASSAY_PROCEDURE: MTT assay for cell survival, NSCLC A-549 in vitro
- Type: cell-based, human
- TEST_SETTINGS: ED50 for killing of NSCLC strain A-549 in vitro, 4 days
pIC50: −log10 of the molar value.
Binary call on pIC50: T from 5 upward, F beneath that.

MOLECULE: O=C(C=Cc1c(F)c(F)c(F)c(F)c1F)NC(Cc1ccc(I)cc1)C(=O)N1CCN(c2ccc(Cl)cc2)CC1 (stereo not drawn) [Analog M-1298, F5c-PIF-Cpp]
TARGET_ENTITY: NSCLC strain A-549
CLASS: F

Would you kindly look at the next entry?
For this molecule, is measured pIC50 5 or higher? O=C(C=Cc1c(F)c(F)c(F)c(F)c1F)NC(Cc1ccc(I)cc1)C(=O)N1CCN(CCCc2ccccc2)CC1 (stereo not drawn) [Analog M-1308, F5c-PIF-Ppp]
F

====

Recorded IC50 values for a group of compounds are listed next.
- System: NSCLC strain A-549
- ASSAY_PROCEDURE: MTT assay for cell survival, NSCLC A-549 in vitro
- Type: cell-based, human
- TEST_SETTINGS: ED50 for killing of NSCLC strain A-549 in vitro, 4 days
Lab book: enter the figure in µM, no units written.

COMPOUND: CC1(C)CC(NC(=O)C(Cc2ccc(-c3ccccc3)cc2)NC(=O)C(c2ccc(Cl)cc2)c2ccc(Cl)cc2)CC(C)(C)N1 (stereo not shown)
TARGET_ENTITY: NSCLC strain A-549
IC50 / µM: 7.3

Recorded result, CC(=O)Oc1ccccc1C(=O)NC(Cc1ccc(OCc2c(Cl)cccc2Cl)cc1)C(=O)NC1CC(C)(C)NC(C)(C)C1 (stereo not shown) , IC50: 3.5

Recorded result, C=CCN1CCN(C(=O)C(Cc2ccc(I)cc2)NC(=O)C=Cc2c(F)c(F)c(F)c(F)c2F)CC1 (stereo not shown) , IC50: 20

Recorded result, N#Cc1ccc(N2CCN(C(=O)C(Cc3ccc(I)cc3)NC(=O)C=Cc3c(F)c(F)c(F)c(F)c3F)CC2)cc1 (stereo not shown) , IC50: 17

====

- Test system: NSCLC strain A-549
- ASSAY_PROCEDURE: MTT assay for cell survival, NSCLC A-549 in vitro
- Format: cell-based, human
- TEST_SETTINGS: ED50 for killing of NSCLC strain A-549 in vitro, 4 days
Recorded pIC50 values for a group of compounds are listed next.
Please treat pIC50 as minus the base-10 logarithm of the molar concentration.

Some compounds with recorded pIC50:
COMPOUND: O=C(C=Cc1c(F)c(F)c(F)c(F)c1F)NC(Cc1ccc(I)cc1)C(=O)N1CCN(C(c2ccc(F)cc2)c2ccc(F)cc2)CC1 (stereo not shown) [Analog M-1336, F5c-PIF-Fpmp]
RECORDED_METRIC: pIC50
DATA_VALUE: 4.92
--
COMPOUND: C=CCN(CC=C)CCN1CCN(C(=O)C(Cc2ccc(I)cc2)NC(=O)C=Cc2c(F)c(F)c(F)c(F)c2F)CC1 (stereo not shown) [Analog M-1318, F5c-PIF-Daep]
RECORDED_METRIC: pIC50
DATA_VALUE: 5.08
--
COMPOUND: O=C(C=Cc1c(F)c(F)c(F)c(F)c1F)NC(Cc1ccc(I)cc1)C(=O)NC1CCN(Cc2ccccc2)C1 (stereo not shown) [Analog M-1326, F5c-PIF-BapR]
RECORDED_METRIC: pIC50
DATA_VALUE: 5.00

Recorded result, Cc1ccc(CN2CCN(C(=O)C(Cc3ccc(I)cc3)NC(=O)C=Cc3c(F)c(F)c(F)c(F)c3F)CC2)cc1 (stereo not shown) [Analog M-1332, F5c-PIF-4-Mbp] , pIC50: 5.11

====

- Tested on: NSCLC strain A-549
- ASSAY_PROCEDURE: MTT assay for cell survival, NSCLC A-549 in vitro
- Format: cell-based, human
- TEST_SETTINGS: ED50 for killing of NSCLC strain A-549 in vitro, 4 days
RECORDED_METRIC: IC50

Recorded result, O=C(C=Cc1c(F)c(F)c(F)c(F)c1F)NC(Cc1ccc(I)cc1)C(=O)NC1CN2CCC1CC2 [Analog M-1286, F5c-PIF-(R)-(+)-Aqu] , IC50: 9 µM

Recorded result, O=C(C=Cc1c(F)c(F)c(F)c(F)c1F)NC(Cc1ccc(I)cc1)C(=O)N1CCC2(CC1)OCCO2 (stereo not drawn) [Analog M-1284, F5c-PIF-Dasd] , IC50: 20 µM

Recorded result, COc1ccc2cc(C(C)C(=O)NC(Cc3ccc(OCc4c(Cl)cccc4Cl)cc3)C(=O)NC3CC(C)(C)NC(C)(C)C3)ccc2c1 (stereo not drawn) [Analog M-1380, Napr-OC2Y-Atmp] , IC50: 1.6 µM

Recorded result, Cc1cc(C)c(CN2CCN(C(=O)C(Cc3ccc(I)cc3)NC(=O)C=Cc3c(F)c(F)c(F)c(F)c3F)CC2)c(C)c1 (stereo not drawn) [Analog M-1334, F5c-PIF-Tmbp] , IC50: 19 µM

Recorded result, CC1(C)CC(NC(=O)C(Cc2ccc(OCc3c(Cl)cccc3Cl)cc2)NC(=O)C2CCn3c(C(=O)c4ccccc4)ccc32)CC(C)(C)N1 (stereo not drawn) [Analog M-1394, Ktlc-OC2Y-Atmp] , IC50: 4.9 µM

Recorded result, O=C(C=Cc1c(F)c(F)c(F)c(F)c1F)NC(Cc1ccc(I)cc1)C(=O)N1CCN(C(c2ccccc2)c2ccc(Cl)cc2)CC1 (stereo not drawn) [Analog M-1300, F5c-PIF-Cbp] , IC50: 21 µM
